Reference source: ChEMBL document CHEMBL1125477

biological target: Neuromedin-K receptor (Rattus norvegicus); experiment: Compound was evaluated for antagonism of contractile response of rat portal vein at tachykinin receptor 3; format: functional
endpoint_label: pKB

pKB lookup needed for `CCCC[C@H](NC(=O)[C@@H]1CCCN1C(=O)[C@H]1CCCN1C(=O)[C@H](Cc1ccccc1)NC(=O)[C@@H](Cc1c[nH]c2ccccc12)NC(=O)[C@H](C)NC(=O)[C@@H](N)CCCN=C(N)N)C(N)=O` , thanks.
< 4.6

Please look up its pKB: `CCCC[C@H](NC(=O)[C@@H]1CCCN1C(=O)[C@H]1CCCN1C(=O)[C@H](Cc1ccccc1)NC(=O)[C@@H](Cc1c[nH]c2ccccc12)NC(=O)[C@H](C)NC(=O)[C@H](CCCN=C(N)N)NC(=O)OC(C)(C)C)C(N)=O`
< 4.6

Quick one: pKB of `CCCC[C@H](NC(=O)[C@@H]1CCCN1C(=O)CNC(=O)[C@H](Cc1ccccc1)NC(=O)[C@@H](Cc1c[nH]c2ccccc12)NC(=O)[C@H](C)NC(=O)[C@@H](N)CCCN=C(N)N)C(N)=O` ?
< 4.6

Which pKB value is on record for `CCCC[C@H](NC(=O)[C@@H]1CCCN1C(=O)[C@H]1CCCN1C(=O)[C@H](Cc1ccccc1)NC(=O)[C@H](Cc1ccccc1)NC(=O)[C@H](C)NC(=O)[C@@H](N)CCCN=C(N)N)C(N)=O` ?
< 4.6

Record request: pKB value, item `CCCC[C@H](NC(=O)[C@H](CC(C)C)NC(=O)[C@@H](Cc1c[nH]c2ccccc12)NC(=O)[C@H](Cc1ccccc1)NC(=O)[C@@H](Cc1c[nH]c2ccccc12)NC(=O)[C@H](C)NC(=O)[C@@H](N)CCCN=C(N)N)C(N)=O`
< 4.6

What value of pKB has been reported for the following compound? `CSCC[C@@H](NC(=O)[C@H](CC(C)C)NC(=O)[C@H]1CCCN1C(=O)[C@H](Cc1ccccc1)NC(=O)[C@@H](Cc1c[nH]c2ccccc12)NC(=O)[C@H](C)NC(=O)[C@@H](N)CCCN=C(N)N)C(N)=O`
4.9

Suppose we examine the compound `CCCC[C@H](NC(=O)[C@@H]1CCCN1C(=O)[C@H]1CCCN1C(=O)[C@H](Cc1ccccc1)NC(=O)[C@@H](Cc1c[nH]c2ccccc12)NC(=O)[C@H](C)NC(=O)[C@H](CCC/N=C(\N)N[N+](=O)[O-])NC(=O)OC(C)(C)C)C(N)=O` ; what pKB value has been reported?
5.2
